- method summary: chemical genetic growth profiling, strain panel (AID 1159580);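 note: tested at 20 µM; growth read once vehicle control cultures reached saturation at 30 °C; lower values mean less growth of the strain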
- reported conditions: S. cerevisiae deletion strains, growth OD, locus YJL128C, strain PBS2
About 2,000 (36%) of roughly 5,500 compounds were called active. Another 18% or so got no clear call; they are omitted. Cut-off read from the data, not from the text of the source: active = normalized growth mostly below about 0.91 (no sharp cut-off); inconclusive = no clear call, values can overlap the other calls; inactive = mostly above about 0.92. This is one part of the list.
Parameter call: string, one of active, inactive

Look over these answered cases.
{"molecule": "CCCCCc1ccc(-c2nc(SCC(C)=O)n[nH]2)cc1", "assigned class": "inactive"}
{"molecule": "O=C(N/N=C\\c1cc(Cl)cc(Cl)c1O)c1ccccc1Oc1ccccc1", "assigned class": "inactive"}
{"molecule": "Oc1ccc(-n2nnnc2SCc2ccc(OC(F)(F)F)cc2)cc1", "assigned class": "inactive"}

## Task Look up the recorded call for CC(NC(=S)Nc1ccc(Oc2ccc(Cl)cc2)cc1)c1ccccc1 (centres undefined) in this test.
## Result inactive

## Task Look up the recorded call for CCOC(=O)C1C(c2ccc(Br)cc2)C(C(=O)OCC)C(O)(C(F)(F)F)NC1(O)C(F)(F)F (centres undefined) in this test.
## Result inactive

## Task Look up the recorded call for C(=NC(N=Cc1ccccc1)c1ccccc1)c1ccccc1 (centres undefined) in this test.
## Result inactive

## Task Look up the recorded call for O=C1CSC(=Nc2cc(Cl)cc(Cl)c2)N1Cc1cccnc1 in this test.
## Result inactive

## Task Look up the recorded call for CC(Oc1ccc(Cl)cc1Cl)C(=O)NNC(=S)Nc1ccccc1 (centres undefined) in this test.
## Result inactive

## Task Look up the recorded call for N#CC(C#N)=NNc1ccc(C(F)(F)F)cc1 in this test.
## Result active

## Task Look up the recorded call for CC(=O)Oc1ccc2c(=O)c(Oc3ccc(Cl)cc3)c(C)oc2c1 in this test.
## Result inactive

## Task Look up the recorded call for CC(/C=C/c1ccccc1)=N/OC(=O)c1ccccc1Cl in this test.
## Result inactive

## Task Look up the recorded call for N#CC(C#N)=NNc1cc(C(F)(F)F)ccc1OCC(F)(F)F in this test.
## Result inactive

## Task Look up the recorded call for N#C/C(=C\C=C\c1ccccc1)c1nc2ccccc2[nH]1 in this test.
## Result inactive

## Task Look up the recorded call for N#Cc1c(N)sc2c1CCc1ccccc1-2 in this test.
## Result inactive

## Task Look up the recorded call for O=C(O)c1cccc2cccc(C(=O)O)c12 in this test.
## Result active

## Task Look up the recorded call for FC(F)(F)c1ccc(C2Sc3ccccc3N=C3c4ccccc4CC32)cc1 (centres undefined) in this test.
## Result inactive

## Task Look up the recorded call for CCCCCc1ccc(S(=O)(=O)Nc2ncc(C)cc2Br)cc1 in this test.
## Result inactive

## Task Look up the recorded call for COc1cccc(C(=O)C(C#N)=C(SC)SC)c1 in this test.
## Result inactive

## Task Look up the recorded call for N#C/C(=N/Nc1ccc(C(F)(F)F)cc1)C(=O)C1CC1 in this test.
## Result inactive
